Test system: ACHN renal
test_description: NCI-60 one-dose screen, 48 h
measurement_context: 10 µM unless noted
The panel holds about 83,000 compounds, 20% with a hit somewhere; the sample as a whole holds those more often. Activity calls are given as the source filed them. How the source made its calls: active means growth percent below 10; inactive means the rest.
Choose one outcome from this list and give only that: 1 = active, 0 = inactive

Some solved cases for reference:
COc1ccc(-c2c(N)noc2-c2cc(OC)c3c(c2)OCCO3)cc1: 0
O=C(O)c1ccc(NC(=O)c2cccc(Nc3ccnc(C(F)(F)F)c3)c2)cc1: 0

Hi, do you know how Cc1nnc(Nc2ccc(NC(=O)Nc3ccc(Cl)cc3)cc2)c2ccccc12 came out in this test?
0

Hi, do you know how CO[C@H]1/C=C/O[C@@]2(C)Oc3c(C)c(O)c4c(O)c(c(/C=N/N5CCN(C)CC5)c(O)c4c3C2=O)NC(=O)/C(C)=C\C=C\C(C)[C@H](O)[C@@H](C)[C@@H](O)[C@@H](C)[C@@H](OC(C)=O)[C@@H]1C (some centres undefined) came out in this test?
0

Hi, do you know how O=C1/C(=C/c2ccc([N+](=O)[O-])o2)Oc2ccc(Br)cc21 came out in this test?
1

Hi, do you know how CSc1nnc(C2=CC(=O)c3ccccc3C2=O)n1-c1ccccc1 came out in this test?
0

Hi, do you know how Cc1cc(NC(=O)Nc2cc(Cl)ccc2C)no1 came out in this test?
0

Hi, do you know how COc1ccc2nc3cc(Cl)ccc3c(Nc3cc(C(C)C)c(O)cc3C)c2c1 came out in this test?
0

Hi, do you know how O=c1ccn(C2OC(CO)C(O)C2F)c(=O)[nH]1 (centres undefined) came out in this test?
0

Hi, do you know how Clc1ccccc1[C@@H]1C[C@@H]2Cc3cc(Br)c4ccccc4c3N1O2 came out in this test?
0

Hi, do you know how NC(=O)c1ncn([C@@H]2O[C@H](CO)[C@@H](O)[C@H]2O)n1 came out in this test?
0

Hi, do you know how COc1ccc(-c2cc(Cc3cccs3)c(=O)n(Cn3ccc4ccccc43)n2)cc1 came out in this test?
0

Hi, do you know how O=C(Nc1nc2ccccc2s1)c1cc(-c2ccc(F)cc2)n2nc(-c3ccccc3)cc2n1 came out in this test?
0

Hi, do you know how NNC(=O)NO came out in this test?
0

Hi, do you know how COc1cc(/C=C/C(=O)c2c(-c3ccc(F)cc3)nc3sc(C)nn23)cc(OC)c1OC came out in this test?
0

Hi, do you know how COc1ccc(-c2oc3cc(O)c(OC)c(O)c3c(=O)c2OC)cc1O came out in this test?
0

Hi, do you know how Clc1ccc(-n2cnc3c(Cl)ncnc32)cc1Cl came out in this test?
0

Hi, do you know how CCOc1cccc(C2CC(=O)Nc3cc4c(cc32)OCO4)c1 (centres undefined) came out in this test?
0

Hi, do you know how CCCCCCCC/C=C/CCCCCCCC1=NC(C)(C)CN1CCO came out in this test?
0
